# system.under.test: UniProt P17655
# Sequence (P17655 whole entry): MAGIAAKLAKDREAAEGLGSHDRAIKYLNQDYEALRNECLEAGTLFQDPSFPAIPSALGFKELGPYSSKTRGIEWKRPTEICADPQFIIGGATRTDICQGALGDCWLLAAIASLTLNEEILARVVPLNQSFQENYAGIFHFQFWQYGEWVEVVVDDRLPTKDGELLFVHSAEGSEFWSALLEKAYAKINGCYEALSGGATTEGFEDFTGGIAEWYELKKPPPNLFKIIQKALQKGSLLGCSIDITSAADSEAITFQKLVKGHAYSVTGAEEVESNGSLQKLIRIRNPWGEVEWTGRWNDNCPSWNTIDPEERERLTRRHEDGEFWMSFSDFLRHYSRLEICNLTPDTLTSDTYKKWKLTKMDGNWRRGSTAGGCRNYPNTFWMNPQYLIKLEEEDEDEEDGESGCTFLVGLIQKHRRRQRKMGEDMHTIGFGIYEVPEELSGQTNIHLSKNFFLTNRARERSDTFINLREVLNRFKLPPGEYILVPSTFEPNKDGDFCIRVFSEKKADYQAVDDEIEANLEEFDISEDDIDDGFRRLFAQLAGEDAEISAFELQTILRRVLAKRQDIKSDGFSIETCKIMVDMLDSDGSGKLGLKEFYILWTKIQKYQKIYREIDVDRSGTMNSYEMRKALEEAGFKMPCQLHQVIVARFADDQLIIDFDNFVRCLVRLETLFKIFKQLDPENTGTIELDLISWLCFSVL
# Sequence (P04632 whole entry partner): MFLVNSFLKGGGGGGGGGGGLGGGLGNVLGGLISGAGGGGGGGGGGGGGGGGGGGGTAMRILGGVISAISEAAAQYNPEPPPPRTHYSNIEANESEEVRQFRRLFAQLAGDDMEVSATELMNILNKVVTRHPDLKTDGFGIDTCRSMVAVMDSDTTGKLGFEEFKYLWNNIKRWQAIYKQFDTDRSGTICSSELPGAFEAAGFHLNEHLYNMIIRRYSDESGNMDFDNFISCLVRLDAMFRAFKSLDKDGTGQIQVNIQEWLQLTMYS
# assay.explanation: Anti-calpain activity, calpain II (casein hydrolysis, Ross-Schatz method)
# Assay type: biochemical
# assay.conditions: Table 4 (Example 28); pH 7.5, 30° C., 30 minutes, casein; read-out: Inhibitory activity toward calpain II, IC50
Would you kindly list IC50 for each of these molecules?
Numeric answer only, unit nM assumed.

Need IC50, item CSCC[C@@H](C=O)NC(=O)[C@H](CC(C)C)NC(=O)CCCc1ccccc1
71

Need IC50, item CCCC[C@H](NC(=O)[C@H](CC(C)C)NC(=O)OCc1ccccc1)C(=O)CCl
120

Need IC50, item CCCC[C@H](NC(=O)[C@H](CC(C)C)NC(=O)CCCc1ccccc1)C(=O)CCl
140

----------
# system.under.test: cathepsin B (Bos taurus, UniProt P07688)
# assay.explanation: Anti-cathepsin activity (cathepsin B, benzyloxycarbonyl-L-lysine-p-nitrophenyl ester substrate)
# Format: biochemical, bovine
# assay.conditions: Table 8 (Example 29); pH 5.1, 30° C., from bovine spleen; read-out: Inhibitory activity toward cathepsin B, IC50
pIC50: −log10 of the molar value.
Entry flag: t if pIC50 reaches 6; f if it does not.

Is reported pIC50 greater than or equal to 6 here: CCCCCC(=O)N[C@@H](CC(C)C)C(=O)N[C@H](C=O)CCCC [Example 2, N-caproyl-L-leucyl-L-norleucinal]
f

Is reported pIC50 greater than or equal to 6 here: CCCC[C@@H](C=O)NC(=O)[C@H](CC(C)C)NC(=O)OCC(Cl)(Cl)Cl [Example 10]
t

Is reported pIC50 greater than or equal to 6 here: CCCC[C@@H](C=O)NC(=O)[C@H](CC(C)C)NC(=O)CC(C)C [Example 3, N-isovaleryl-L-leucyl-L-norleucinal]
t
